Exercise: state measured % Remaining in Solution for each of the compounds provided.
- Test description: Partition of avermectins between aqueous acetone and Duolite ES-863 resin (HPLC of supernatant before and after equilibration)
- Experimental parameters: 82.2% acetone; ES-863 resin, similar procedures
Numbers only, in %.

CCC(C)C1OC2(CC3CC(CC=C(C)C(OC4CC(OC)C(OC5CC(OC)C(O)C(C)O5)C(C)O4)C(C)C=CC=C4COC5C(O)C(C)=CC(C(=O)O3)C45O)O2)CC(O)C1C (stereo not shown) [B2a] :: 165

Need % Remaining in Solution for each of these compounds.
1. COC1CC(OC2C(C)OC(OC3C(C)=CCC4CC(CC5(C=CC(C)C(C(C)C)O5)O4)OC(=O)C4C=C(C)C(O)C5OCC(=CC=CC3C)C45O)CC2OC)OC(C)C1O (stereo not shown) [B1b]
2. COC1CC(OC2C(C)OC(OC3C(C)=CCC4CC(CC5(C=CC(C)C(C(C)C)O5)O4)OC(=O)C4C=C(C)C(OC)C5OCC(=CC=CC3C)C45O)CC2OC)OC(C)C1O (stereo not shown) [A1b]
3. COC1CC(OC2C(C)OC(OC3C(C)=CCC4CC(CC5(CC(O)C(C)C(C(C)C)O5)O4)OC(=O)C4C=C(C)C(O)C5OCC(=CC=CC3C)C45O)CC2OC)OC(C)C1O (stereo not shown) [B2b]
4. CCC(C)C1OC2(CC3CC(CC=C(C)C(OC4CC(OC)C(OC5CC(OC)C(O)C(C)O5)C(C)O4)C(C)C=CC=C4COC5C(OC)C(C)=CC(C(=O)O3)C45O)O2)CC(O)C1C (stereo not shown) [A2a]
5. COC1CC(OC2C(C)OC(OC3C(C)=CCC4CC(CC5(CC(O)C(C)C(C(C)C)O5)O4)OC(=O)C4C=C(C)C(OC)C5OCC(=CC=CC3C)C45O)CC2OC)OC(C)C1O (stereo not shown) [A2b]
6. CCC(C)C1OC2(C=CC1C)CC1CC(CC=C(C)C(OC3CC(OC)C(OC4CC(OC)C(O)C(C)O4)C(C)O3)C(C)C=CC=C3COC4C(OC)C(C)=CC(C(=O)O1)C34O)O2 (stereo not shown) [A1a]

123
79.0
135
110
128
136

* * *

- Test description: Partition of avermectins between aqueous acetone and Duolite ES-863 resin (HPLC of supernatant before and after equilibration)
- Experimental parameters: 73.3% acetone; ES-863 resin, similar procedures
Quantity kind: % Remaining in Solution (%)
Give bare numbers, in %.

Below: 5 molecules and their reported % Remaining in Solution.
CCC(C)C1OC2(CC3CC(CC=C(C)C(OC4CC(OC)C(OC5CC(OC)C(O)C(C)O5)C(C)O4)C(C)C=CC=C4COC5C(O)C(C)=CC(C(=O)O3)C45O)O2)CC(O)C1C (stereo not drawn) :: 60.4
COC1CC(OC2C(C)OC(OC3C(C)=CCC4CC(CC5(CC(O)C(C)C(C(C)C)O5)O4)OC(=O)C4C=C(C)C(OC)C5OCC(=CC=CC3C)C45O)CC2OC)OC(C)C1O (stereo not drawn) :: 64.8
CCC(C)C1OC2(C=CC1C)CC1CC(CC=C(C)C(OC3CC(OC)C(OC4CC(OC)C(O)C(C)O4)C(C)O3)C(C)C=CC=C3COC4C(OC)C(C)=CC(C(=O)O1)C34O)O2 (stereo not drawn) :: 19.7
COC1CC(OC2C(C)OC(OC3C(C)=CCC4CC(CC5(C=CC(C)C(C(C)C)O5)O4)OC(=O)C4C=C(C)C(OC)C5OCC(=CC=CC3C)C45O)CC2OC)OC(C)C1O (stereo not drawn) :: 68.1
CCC(C)C1OC2(CC3CC(CC=C(C)C(OC4CC(OC)C(OC5CC(OC)C(O)C(C)O5)C(C)O4)C(C)C=CC=C4COC5C(OC)C(C)=CC(C(=O)O3)C45O)O2)CC(O)C1C (stereo not drawn) :: 42.1

Kindly consider the entry below.
Fill in: % Remaining in Solution of COC1CC(OC2C(C)OC(OC3C(C)=CCC4CC(CC5(C=CC(C)C(C(C)C)O5)O4)OC(=O)C4C=C(C)C(O)C5OCC(=CC=CC3C)C45O)CC2OC)OC(C)C1O (stereo not drawn) is ___
5.15

* * *

- Test description: Partition of avermectins between aqueous acetone and Duolite ES-863 resin (HPLC of supernatant before and after equilibration)
- Experimental parameters: 50.0% acetone (vol); 4 ml supernatant, 1 g ES-863 resin, equilibrated for an hour
Quantity kind: % Remaining in Solution (%)
Give bare numbers, in %.

CCC(C)C1OC2(C=CC1C)CC1CC(CC=C(C)C(OC3CC(OC)C(OC4CC(OC)C(O)C(C)O4)C(C)O3)C(C)C=CC=C3COC4C(OC)C(C)=CC(C(=O)O1)C34O)O2 (stereo not shown) :: 3.03
COC1CC(OC2C(C)OC(OC3C(C)=CCC4CC(CC5(C=CC(C)C(C(C)C)O5)O4)OC(=O)C4C=C(C)C(O)C5OCC(=CC=CC3C)C45O)CC2OC)OC(C)C1O (stereo not shown) :: 0.90
COC1CC(OC2C(C)OC(OC3C(C)=CCC4CC(CC5(C=CC(C)C(C(C)C)O5)O4)OC(=O)C4C=C(C)C(OC)C5OCC(=CC=CC3C)C45O)CC2OC)OC(C)C1O (stereo not shown) :: 2.42
COC1CC(OC2C(C)OC(OC3C(C)=CCC4CC(CC5(CC(O)C(C)C(C(C)C)O5)O4)OC(=O)C4C=C(C)C(OC)C5OCC(=CC=CC3C)C45O)CC2OC)OC(C)C1O (stereo not shown) :: 0.57

Need % Remaining in Solution for each of these compounds.
1. CCC(C)C1OC2(CC3CC(CC=C(C)C(OC4CC(OC)C(OC5CC(OC)C(O)C(C)O5)C(C)O4)C(C)C=CC=C4COC5C(O)C(C)=CC(C(=O)O3)C45O)O2)CC(O)C1C (stereo not shown)
2. CCC(C)C1OC2(CC3CC(CC=C(C)C(OC4CC(OC)C(OC5CC(OC)C(O)C(C)O5)C(C)O4)C(C)C=CC=C4COC5C(OC)C(C)=CC(C(=O)O3)C45O)O2)CC(O)C1C (stereo not shown)
3. COC1CC(OC2C(C)OC(OC3C(C)=CCC4CC(CC5(CC(O)C(C)C(C(C)C)O5)O4)OC(=O)C4C=C(C)C(O)C5OCC(=CC=CC3C)C45O)CC2OC)OC(C)C1O (stereo not shown)

[1.36, 2.12, 4.35]

* * *

- Test description: Partition of avermectins between aqueous acetone and Duolite ES-863 resin (HPLC of supernatant before and after equilibration)
- Experimental parameters: 77.1% acetone; ES-863 resin, similar procedures
Each record is given yes (1) if its reported % Remaining in Solution is strictly below 80%. Records at or above 80% are given no (0).

COC1CC(OC2C(C)OC(OC3C(C)=CCC4CC(CC5(CC(O)C(C)C(C(C)C)O5)O4)OC(=O)C4C=C(C)C(OC)C5OCC(=CC=CC3C)C45O)CC2OC)OC(C)C1O (stereo not drawn) :: no (0)
COC1CC(OC2C(C)OC(OC3C(C)=CCC4CC(CC5(C=CC(C)C(C(C)C)O5)O4)OC(=O)C4C=C(C)C(OC)C5OCC(=CC=CC3C)C45O)CC2OC)OC(C)C1O (stereo not drawn) :: no (0)

Lab note: confirm whether the reported % Remaining in Solution for this molecule is below 80%, equality not counting. molecule: COC1CC(OC2C(C)OC(OC3C(C)=CCC4CC(CC5(C=CC(C)C(C(C)C)O5)O4)OC(=O)C4C=C(C)C(O)C5OCC(=CC=CC3C)C45O)CC2OC)OC(C)C1O (stereo not drawn)
yes (1)

Lab note: confirm whether the reported % Remaining in Solution for this molecule is below 80%, equality not counting. molecule: CCC(C)C1OC2(C=CC1C)CC1CC(CC=C(C)C(OC3CC(OC)C(OC4CC(OC)C(O)C(C)O4)C(C)O3)C(C)C=CC=C3COC4C(OC)C(C)=CC(C(=O)O1)C34O)O2 (stereo not drawn)
yes (1)

Lab note: confirm whether the reported % Remaining in Solution for this molecule is below 80%, equality not counting. molecule: CCC(C)C1OC2(CC3CC(CC=C(C)C(OC4CC(OC)C(OC5CC(OC)C(O)C(C)O5)C(C)O4)C(C)C=CC=C4COC5C(OC)C(C)=CC(C(=O)O3)C45O)O2)CC(O)C1C (stereo not drawn)
yes (1)

* * *

Exercise: state measured % Remaining in Solution for each of the molecules provided.
- Test description: Partition of avermectins between aqueous acetone and Duolite ES-863 resin (HPLC of supernatant before and after equilibration)
- Experimental parameters: 21.4% acetone (vol); 4 ml supernatant, 1 g ES-863 resin, equilibrated for an hour
Numbers only, in %.

Below: 5 molecules and their reported % Remaining in Solution.
COC1CC(OC2C(C)OC(OC3C(C)=CCC4CC(CC5(C=CC(C)C(C(C)C)O5)O4)OC(=O)C4C=C(C)C(O)C5OCC(=CC=CC3C)C45O)CC2OC)OC(C)C1O (stereo not shown) [B1b] :: 3.73
COC1CC(OC2C(C)OC(OC3C(C)=CCC4CC(CC5(C=CC(C)C(C(C)C)O5)O4)OC(=O)C4C=C(C)C(OC)C5OCC(=CC=CC3C)C45O)CC2OC)OC(C)C1O (stereo not shown) [A1b] :: 4.56
CCC(C)C1OC2(C=CC1C)CC1CC(CC=C(C)C(OC3CC(OC)C(OC4CC(OC)C(O)C(C)O4)C(C)O3)C(C)C=CC=C3COC4C(OC)C(C)=CC(C(=O)O1)C34O)O2 (stereo not shown) [A1a] :: 4.40
CCC(C)C1OC2(CC3CC(CC=C(C)C(OC4CC(OC)C(OC5CC(OC)C(O)C(C)O5)C(C)O4)C(C)C=CC=C4COC5C(OC)C(C)=CC(C(=O)O3)C45O)O2)CC(O)C1C (stereo not shown) [A2a] :: 5.36
CCC(C)C1OC2(CC3CC(CC=C(C)C(OC4CC(OC)C(OC5CC(OC)C(O)C(C)O5)C(C)O4)C(C)C=CC=C4COC5C(O)C(C)=CC(C(=O)O3)C45O)O2)CC(O)C1C (stereo not shown) [B2a] :: 5.10

Kindly consider the entry below.
Fill in: % Remaining in Solution of COC1CC(OC2C(C)OC(OC3C(C)=CCC4CC(CC5(CC(O)C(C)C(C(C)C)O5)O4)OC(=O)C4C=C(C)C(OC)C5OCC(=CC=CC3C)C45O)CC2OC)OC(C)C1O (stereo not shown) [A2b] is ___
2.75
